src = patent US20240270857A1

- Experimental Target: T1, IL-36R naturally expressed on OVCAR8 cells and on normal human epidermal keratinocytes (NHK cells) (human, UniProt Q9HB29 20-575)
- T1 sequence (looked up): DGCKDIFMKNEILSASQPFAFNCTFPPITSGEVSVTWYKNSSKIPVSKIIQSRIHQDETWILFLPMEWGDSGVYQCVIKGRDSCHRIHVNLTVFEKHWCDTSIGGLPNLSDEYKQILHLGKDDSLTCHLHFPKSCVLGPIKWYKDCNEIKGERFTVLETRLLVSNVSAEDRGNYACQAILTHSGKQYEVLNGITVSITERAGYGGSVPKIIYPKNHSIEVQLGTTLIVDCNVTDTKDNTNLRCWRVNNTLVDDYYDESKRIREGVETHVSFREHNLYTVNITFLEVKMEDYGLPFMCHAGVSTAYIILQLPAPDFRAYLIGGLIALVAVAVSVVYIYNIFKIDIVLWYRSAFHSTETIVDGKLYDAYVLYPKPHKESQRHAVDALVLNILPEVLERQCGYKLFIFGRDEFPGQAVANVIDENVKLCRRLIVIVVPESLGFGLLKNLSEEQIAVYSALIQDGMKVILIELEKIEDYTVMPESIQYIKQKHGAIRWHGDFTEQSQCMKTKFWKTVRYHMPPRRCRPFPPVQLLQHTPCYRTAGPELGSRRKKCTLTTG
- Test Details: cell-based or functional assay
Each entry below carries its reported IC50 (M); hIL36β; IL-8 production.
The answer is to be given in M; state only the numeric part.

Worked set:
Binder	Unit Label	IC50 (M); hIL36β; IL-8 production
hz84C4-1.4 (antibody, human IgG4 S228P, kappa, V domains shown, Humanized, human IgG4 / kappa) VH: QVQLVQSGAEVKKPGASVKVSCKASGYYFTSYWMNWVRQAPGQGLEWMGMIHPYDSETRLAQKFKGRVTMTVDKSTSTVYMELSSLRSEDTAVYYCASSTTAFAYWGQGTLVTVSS VL: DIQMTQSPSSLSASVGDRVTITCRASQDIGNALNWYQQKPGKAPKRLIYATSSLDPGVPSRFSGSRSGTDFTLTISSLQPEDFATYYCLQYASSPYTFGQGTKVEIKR	M	1.46e-11
hz84C4-1.5 (antibody, human IgG4 S228P, kappa, V domains shown, Humanized, human IgG4 / kappa) VH: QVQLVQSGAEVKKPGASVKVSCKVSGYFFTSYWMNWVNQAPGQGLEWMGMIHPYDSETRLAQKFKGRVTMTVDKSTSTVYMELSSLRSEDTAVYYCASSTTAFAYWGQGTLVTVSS VL: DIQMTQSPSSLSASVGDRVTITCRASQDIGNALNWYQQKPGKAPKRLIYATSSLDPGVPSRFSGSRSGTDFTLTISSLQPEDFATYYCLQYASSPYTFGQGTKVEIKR	M	1.06e-11

Bench note: what IC50 (M); hIL36β; IL-8 production did hz84C4-1.2 (antibody, human IgG4 S228P, kappa, V domains shown, Humanized, human IgG4 / kappa) VH: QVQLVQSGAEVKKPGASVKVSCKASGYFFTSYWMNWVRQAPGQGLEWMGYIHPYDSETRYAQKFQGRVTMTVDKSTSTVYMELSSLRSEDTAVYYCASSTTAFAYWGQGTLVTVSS VL: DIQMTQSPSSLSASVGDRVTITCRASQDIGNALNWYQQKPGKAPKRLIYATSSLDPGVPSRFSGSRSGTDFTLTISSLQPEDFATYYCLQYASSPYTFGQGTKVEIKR show? 1.6e-12
